- Test system: Escherichia coli TOP10
- assay-summary: shrunken log2 fold change of peptide-encoding DNA abundance (4.5 h post-induction vs induction); higher = less antimicrobial activity (less host growth inhibition)
- test-conditions: time post-induction: 4.5 h; library: site-saturation at positions 5, 18, 19, 20
Classes based on shrunken log2 fold change: lower segment: < -0.07; middle segment: ≥ -0.07 and < 0.07; upper segment: ≥ 0.07

Solved entries:
Query block: Hi there! Could you help me figure out the category for `RRIRNRPPRLPRPRPRPGYIPRP` please?
Result block: lower segment

Query block: Hi there! Could you help me figure out the category for `RRIRRRPPRLPRPRPRPTDHPRP` please?
Result block: lower segment

Query block: Hi there! Could you help me figure out the category for `RRIRDRPPRLPRPRPRPETFPRP` please?
Result block: middle segment

Query block: Hi there! Could you help me figure out the category for `RRIRQRPPRLPRPRPRPHEYPRP` please?
Result block: middle segment

Query block: Hi there! Could you help me figure out the category for `RRIRCRPPRLPRPRPRPNTSPRP` please?
Result block: lower segment

Query block: Hi there! Could you help me figure out the category for `RRIRKRPPRLPRPRPRPPHKPRP` please?
Result block: upper segment

New cases:
Query block: Hi there! Could you help me figure out the category for `RRIRKRPPRLPRPRPRPMSSPRP` please?
Result block: upper segment

Query block: Hi there! Could you help me figure out the category for `RRIRFRPPRLPRPRPRPRGLPRP` please?
Result block: lower segment

Query block: Hi there! Could you help me figure out the category for `RRIRWRPPRLPRPRPRPINGPRP` please?
Result block: middle segment

Query block: Hi there! Could you help me figure out the category for `RRIRDRPPRLPRPRPRPPEFPRP` please?
Result block: middle segment

Query block: Hi there! Could you help me figure out the category for `RRIRMRPPRLPRPRPRPYYDPRP` please?
Result block: middle segment

Query block: Hi there! Could you help me figure out the category for `RRIRRRPPRLPRPRPRPGADPRP` please?
Result block: upper segment

Query block: Hi there! Could you help me figure out the category for `RRIRRRPPRLPRPRPRPSKCPRP` please?
Result block: lower segment

Query block: Hi there! Could you help me figure out the category for `RRIRKRPPRLPRPRPRPPLGPRP` please?
Result block: upper segment

Query block: Hi there! Could you help me figure out the category for `RRIRWRPPRLPRPRPRPQKKPRP` please?
Result block: upper segment

Query block: Hi there! Could you help me figure out the category for `RRIRIRPPRLPRPRPRPIHAPRP` please?
Result block: middle segment

Query block: Hi there! Could you help me figure out the category for `RRIRHRPPRLPRPRPRPHYIPRP` please?
Result block: lower segment

Query block: Hi there! Could you help me figure out the category for `RRIRGRPPRLPRPRPRPLMGPRP` please?
Result block: upper segment

Query block: Hi there! Could you help me figure out the category for `RRIRRRPPRLPRPRPRPLPHPRP` please?
Result block: upper segment

Query block: Hi there! Could you help me figure out the category for `RRIRQRPPRLPRPRPRPVWLPRP` please?
Result block: upper segment

Query block: Hi there! Could you help me figure out the category for `RRIRARPPRLPRPRPRPSAIPRP` please?
Result block: upper segment

Query block: Hi there! Could you help me figure out the category for `RRIRRRPPRLPRPRPRPMNVPRP` please?
Result block: lower segment

Query block: Hi there! Could you help me figure out the category for `RRIRVRPPRLPRPRPRPMDNPRP` please?
Result block: middle segment

Query block: Hi there! Could you help me figure out the category for `RRIRKRPPRLPRPRPRPLIRPRP` please?
Result block: lower segment

Query block: Hi there! Could you help me figure out the category for `RRIRWRPPRLPRPRPRPKIDPRP` please?
Result block: upper segment

Query block: Hi there! Could you help me figure out the category for `RRIRDRPPRLPRPRPRPKNNPRP` please?
Result block: lower segment

* * *

- Tested on: Escherichia coli TOP10
- assay-summary: shrunken log2 fold change of peptide-encoding DNA abundance (4.5 h post-induction vs induction); higher = less antimicrobial activity (less host growth inhibition)
- test-conditions: time post-induction: 4.5 h; library: site-saturation at positions 5, 18, 19, 20
Classes based on shrunken log2 fold change: group 1: < -0.03; group 2: ≥ -0.03 and < 0.2; group 3: ≥ 0.2

Query block: Hi there! Could you help me figure out the category for `RRIRCRPPRLPRPRPRPTSRPRP` please?
Result block: group 1

New cases:
Query block: Hi there! Could you help me figure out the category for `RRIRWRPPRLPRPRPRPGEKPRP` please?
Result block: group 3

Query block: Hi there! Could you help me figure out the category for `RRIRPRPPRLPRPRPRPMLWPRP` please?
Result block: group 2

Query block: Hi there! Could you help me figure out the category for `RRIRVRPPRLPRPRPRPVFPPRP` please?
Result block: group 2

* * *

- System: Escherichia coli TOP10
- assay-summary: shrunken log2 fold change of peptide-encoding DNA abundance (4.5 h post-induction vs induction); higher = less antimicrobial activity (less host growth inhibition)
- test-conditions: time post-induction: 4.5 h; library: site-saturation at positions 5, 18, 19, 20
Hi, to clarify the labels: true (1) covers shrunken log2 fold change from -0.009 upward, false (0) covers anything below -0.009.

Query block: Does the reported shrunken log2 fold change for `RRIRRRPPRLPRPRPRPPNVPRP` fall at or above the -0.009 mark?
Result block: true (1)

Query block: Does the reported shrunken log2 fold change for `RRIRMRPPRLPRPRPRPHMHPRP` fall at or above the -0.009 mark?
Result block: true (1)

Query block: Does the reported shrunken log2 fold change for `RRIRRRPPRLPRPRPRPDLTPRP` fall at or above the -0.009 mark?
Result block: true (1)

New cases:
Query block: Does the reported shrunken log2 fold change for `RRIRGRPPRLPRPRPRPFDYPRP` fall at or above the -0.009 mark?
Result block: false (0)

Query block: Does the reported shrunken log2 fold change for `RRIRWRPPRLPRPRPRPFCDPRP` fall at or above the -0.009 mark?
Result block: true (1)

Query block: Does the reported shrunken log2 fold change for `RRIRCRPPRLPRPRPRPNTMPRP` fall at or above the -0.009 mark?
Result block: false (0)

Query block: Does the reported shrunken log2 fold change for `RRIRKRPPRLPRPRPRPCCYPRP` fall at or above the -0.009 mark?
Result block: true (1)

* * *

- Test system: Escherichia coli TOP10
- assay-summary: shrunken log2 fold change of peptide-encoding DNA abundance (4.5 h post-induction vs induction); higher = less antimicrobial activity (less host growth inhibition)
- test-conditions: time post-induction: 4.5 h; library: site-saturation at positions 5, 18, 19, 20
Hi, to clarify the labels: YES covers shrunken log2 fold change from -0.2 upward, NO covers anything below -0.2.

Query block: Does the reported shrunken log2 fold change for `RRIRVRPPRLPRPRPRPKILPRP` fall at or above the -0.2 mark?
Result block: YES

Query block: Does the reported shrunken log2 fold change for `RRIRIRPPRLPRPRPRPIGCPRP` fall at or above the -0.2 mark?
Result block: YES

Query block: Does the reported shrunken log2 fold change for `RRIRLRPPRLPRPRPRPHKYPRP` fall at or above the -0.2 mark?
Result block: NO

Query block: Does the reported shrunken log2 fold change for `RRIRLRPPRLPRPRPRPQHAPRP` fall at or above the -0.2 mark?
Result block: YES

New cases:
Query block: Does the reported shrunken log2 fold change for `RRIRGRPPRLPRPRPRPTSMPRP` fall at or above the -0.2 mark?
Result block: YES

Query block: Does the reported shrunken log2 fold change for `RRIRIRPPRLPRPRPRPSNDPRP` fall at or above the -0.2 mark?
Result block: NO

Query block: Does the reported shrunken log2 fold change for `RRIRFRPPRLPRPRPRPKLNPRP` fall at or above the -0.2 mark?
Result block: YES

Query block: Does the reported shrunken log2 fold change for `RRIRMRPPRLPRPRPRPNHFPRP` fall at or above the -0.2 mark?
Result block: NO

* * *

- Test system: Escherichia coli TOP10;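 further: peptides expressed intracellularly from a pBAD plasmid library in pooled LB shake-flask culture, induced with 0.3% L-arabinose, DNA abundance read by NGS, three biological replicates, DESeq2 with apeglm shrinkage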
- assay-summary: shrunken log2 fold change of peptide-encoding DNA abundance (4.5 h post-induction vs induction); higher = less antimicrobial activity (less host growth inhibition)
- test-conditions: time post-induction: 4.5 h; library: site-saturation at positions 5, 18, 19, 20
# shrunken log2 fold change annotations
When you answer, write just the number.

Below, each entry is followed by its recorded shrunken log2 fold change result.
Query block: What does the data say about its shrunken log2 fold change? Entry: `RRIRFRPPRLPRPRPRPSNMPRP`
Result block: -0.935

Query block: What does the data say about its shrunken log2 fold change? Entry: `RRIRARPPRLPRPRPRPTCVPRP`
Result block: 0.698

Query block: What does the data say about its shrunken log2 fold change? Entry: `RRIRRRPPRLPRPRPRPNCGPRP`
Result block: 0.315

Query block: What does the data say about its shrunken log2 fold change? Entry: `RRIRVRPPRLPRPRPRPRTNPRP`
Result block: -0.42

Query block: What does the data say about its shrunken log2 fold change? Entry: `RRIRHRPPRLPRPRPRPTAWPRP`
Result block: 0.0946

New cases:
Query block: What does the data say about its shrunken log2 fold change? Entry: `RRIRWRPPRLPRPRPRPQFTPRP`
Result block: -0.313

Query block: What does the data say about its shrunken log2 fold change? Entry: `RRIRWRPPRLPRPRPRPHGWPRP`
Result block: 0.213

Query block: What does the data say about its shrunken log2 fold change? Entry: `RRIRMRPPRLPRPRPRPDAGPRP`
Result block: 1.12
